List of Kd values.
- system-under-test: T1, EsCas13d, nuclease-dead (Eubacterium siraeum, UniProt B0MS50, R295A;H300A;R849A;H854A)
- T1 sequence: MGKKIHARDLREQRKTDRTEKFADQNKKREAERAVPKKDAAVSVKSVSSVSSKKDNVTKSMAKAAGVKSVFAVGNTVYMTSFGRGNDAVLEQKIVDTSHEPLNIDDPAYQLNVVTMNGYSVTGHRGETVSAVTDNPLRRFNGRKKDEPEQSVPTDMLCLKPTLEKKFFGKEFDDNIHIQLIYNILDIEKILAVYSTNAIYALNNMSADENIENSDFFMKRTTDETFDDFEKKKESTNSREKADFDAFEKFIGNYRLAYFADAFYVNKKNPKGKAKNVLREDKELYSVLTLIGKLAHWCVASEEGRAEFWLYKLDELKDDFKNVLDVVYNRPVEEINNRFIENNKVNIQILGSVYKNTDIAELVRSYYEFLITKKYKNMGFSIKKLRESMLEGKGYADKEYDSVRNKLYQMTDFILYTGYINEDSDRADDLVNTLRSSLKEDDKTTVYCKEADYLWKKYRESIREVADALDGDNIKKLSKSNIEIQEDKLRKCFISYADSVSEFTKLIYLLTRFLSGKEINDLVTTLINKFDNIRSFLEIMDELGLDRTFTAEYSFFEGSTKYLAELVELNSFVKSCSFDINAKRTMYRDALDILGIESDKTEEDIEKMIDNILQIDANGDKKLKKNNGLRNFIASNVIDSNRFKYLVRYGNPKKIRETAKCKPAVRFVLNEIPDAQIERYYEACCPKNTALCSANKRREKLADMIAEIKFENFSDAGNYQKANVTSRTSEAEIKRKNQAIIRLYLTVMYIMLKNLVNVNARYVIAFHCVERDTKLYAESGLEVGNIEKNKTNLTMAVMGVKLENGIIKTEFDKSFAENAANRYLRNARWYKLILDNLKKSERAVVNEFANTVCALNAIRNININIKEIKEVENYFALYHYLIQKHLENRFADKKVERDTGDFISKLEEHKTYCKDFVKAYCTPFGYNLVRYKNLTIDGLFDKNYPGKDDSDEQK
- method-notes: crRNA (strand 1, pre-loaded); Mg2+; 40 mM Tris-HCl pH 7.5, 150 mM NaCl, 6 mM MgCl2, 1 mM DTT, 0.1% Tween-20, 0.2 mg/ml BSA; 25 C; 10 min per concentration, then washed
- particulars: tags: His6-TwinStrep-SUMO cleaved; N-terminal SNAP kept (SNAP-Surface 488); label: 3' end held by stalled T7 RNA polymerase

# input Which Kd value belongs to target 3 insG 3' of 5,insC 3' of 5 (mixed) RNA 1: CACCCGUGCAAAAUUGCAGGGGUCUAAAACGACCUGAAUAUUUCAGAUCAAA RNA 2: GGGAAUGGAUCCACAUCUACGAAUUCGUUUUUGAUCUGAAAUAUUCAGCGGUCUGCAGAUCGGAAGAGCACACGU ?
# output 32.7 nM

# input Need Kd, item target 2 MT 5'PFS AUU 3'PFS CAG (mixed) RNA 1: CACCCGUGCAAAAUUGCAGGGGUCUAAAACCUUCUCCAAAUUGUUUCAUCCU RNA 2: GGGAAUGGAUCCACAUCUACGAAUUCAUUAGGAUGAAACAAUUUGGAGAAGCAGAGAUCGGAAGAGCACACGU
# output 6.9 nM

# input What value of measured Kd is listed for target 2 MT 5'PFS ACU 3'PFS AGG (mixed) RNA 1: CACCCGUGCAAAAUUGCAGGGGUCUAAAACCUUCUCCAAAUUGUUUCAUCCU RNA 2: GGGAAUGGAUCCACAUCUACGAAUUCACUAGGAUGAAACAAUUUGGAGAAGAGGAGAUCGGAAGAGCACACGU ?
# output 4.5 nM

# input Which Kd is reported for this binder? target 2 MT 5'PFS ACU 3'PFS AUC (mixed) RNA 1: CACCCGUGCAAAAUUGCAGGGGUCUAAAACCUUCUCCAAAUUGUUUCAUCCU RNA 2: GGGAAUGGAUCCACAUCUACGAAUUCACUAGGAUGAAACAAUUUGGAGAAGAUCAGAUCGGAAGAGCACACGU
# output 4.1 nM

# input Name the recorded Kd for target 2 MT 5'PFS GAU 3'PFS ACC (mixed) RNA 1: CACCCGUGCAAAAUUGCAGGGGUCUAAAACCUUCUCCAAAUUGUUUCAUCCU RNA 2: GGGAAUGGAUCCACAUCUACGAAUUCGAUAGGAUGAAACAAUUUGGAGAAGACCAGAUCGGAAGAGCACACGU .
# output 17.7 nM

# input What value of Kd has been recorded for this entry: target 1 insC 3' of 10,insG 3' of 4 (mixed) RNA 1: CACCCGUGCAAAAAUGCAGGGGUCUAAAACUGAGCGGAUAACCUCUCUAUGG RNA 2: GGGAAUGGAUCCACAUCUACGAAUUCGUACCAUAGAGAGGUUCAUCCGCGUCACCGAGAUCGGAAGAGCACACGU
# output 8.6 nM

# input Sample target 1 insA 3' of 15,insG 3' of 11 (mixed) RNA 1: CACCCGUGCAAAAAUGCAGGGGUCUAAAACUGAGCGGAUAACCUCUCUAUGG RNA 2: GGGAAUGGAUCCACAUCUACGAAUUCGUACCAUAGAGAAGGUGUAUCCGCUCACCGAGAUCGGAAGAGCACACGU — what was its Kd?
# output 24 nM

# input I'd like to know its Kd. The binder in question is target 1 C2G,A20U (mixed) RNA 1: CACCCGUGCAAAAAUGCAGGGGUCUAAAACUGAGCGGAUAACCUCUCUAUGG RNA 2: GGGAAUGGAUCCACAUCUACGAAUUCGUACCUUAGAGAGGUUAUCCGCUGACCGAGAUCGGAAGAGCACACGU
# output 39 nM

# input Item target 2 MT 5'PFS CAC 3'PFS CCA (mixed) RNA 1: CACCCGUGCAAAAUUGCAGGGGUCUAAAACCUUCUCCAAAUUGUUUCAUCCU RNA 2: GGGAAUGGAUCCACAUCUACGAAUUCCACAGGAUGAAACAAUUUGGAGAAGCCAAGAUCGGAAGAGCACACGU has what recorded Kd?
# output 4.5 nM

# input For the binder target 1 MT 5'PFS CUU 3'PFS UUA (mixed) RNA 1: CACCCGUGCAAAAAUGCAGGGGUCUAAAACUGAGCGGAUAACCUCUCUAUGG RNA 2: GGGAAUGGAUCCACAUCUACGAAUUCCUUCCAUAGAGAGGUUAUCCGCUCAUUAAGAUCGGAAGAGCACACGU , what Kd is on record?
# output 20.9 nM
